conditions: Crystal; DTA

{"columns": ["smi", "Normal melting temperature / °C"],
 "data": [
  ["Clc1c2ccccc2cc2ccccc12", 103.5],
  ["Brc1c2ccccc2c(Br)c2ccccc12", 224.7],
  ["Clc1c2ccccc2c(Cl)c2ccccc12", 213.5],
  ["Brc1ccc(-c2ccccc2)cc1", 89.0],
  ["Brc1ccc(Br)c2ccccc12", 80.0]
]}

* * *

experiment: Molar enthalpy of transition or fusion; conditions: Crystal; DSC
Listed here: items and their measured Molar enthalpy of transition or fusion.

{"columns": ["compound", "Molar enthalpy of transition or fusion / kcal/mol"],
 "data": [
  ["Clc1c2ccccc2cc2ccccc12 [9-chloroanthracene]", 5.26],
  ["Brc1c2ccccc2c(Br)c2ccccc12 [9,10-dibromoanthracene]", 6.86],
  ["Clc1c2ccccc2c(Cl)c2ccccc12 [9,10-dichloroanthracene]", 6],
  ["Brc1ccc(Br)c2ccccc12 [1,4-dibromonaphthalene]", 5.04],
  ["Brc1ccc(-c2ccccc2)cc1 [4-bromo-1,1'-biphenyl]", 3.9]
]}
